Below: a set of entries, each annotated with reported pIC50.
Molecular target: human fatty acid synthase FASN (Homo sapiens (Human))
Sequence (P49327 whole entry): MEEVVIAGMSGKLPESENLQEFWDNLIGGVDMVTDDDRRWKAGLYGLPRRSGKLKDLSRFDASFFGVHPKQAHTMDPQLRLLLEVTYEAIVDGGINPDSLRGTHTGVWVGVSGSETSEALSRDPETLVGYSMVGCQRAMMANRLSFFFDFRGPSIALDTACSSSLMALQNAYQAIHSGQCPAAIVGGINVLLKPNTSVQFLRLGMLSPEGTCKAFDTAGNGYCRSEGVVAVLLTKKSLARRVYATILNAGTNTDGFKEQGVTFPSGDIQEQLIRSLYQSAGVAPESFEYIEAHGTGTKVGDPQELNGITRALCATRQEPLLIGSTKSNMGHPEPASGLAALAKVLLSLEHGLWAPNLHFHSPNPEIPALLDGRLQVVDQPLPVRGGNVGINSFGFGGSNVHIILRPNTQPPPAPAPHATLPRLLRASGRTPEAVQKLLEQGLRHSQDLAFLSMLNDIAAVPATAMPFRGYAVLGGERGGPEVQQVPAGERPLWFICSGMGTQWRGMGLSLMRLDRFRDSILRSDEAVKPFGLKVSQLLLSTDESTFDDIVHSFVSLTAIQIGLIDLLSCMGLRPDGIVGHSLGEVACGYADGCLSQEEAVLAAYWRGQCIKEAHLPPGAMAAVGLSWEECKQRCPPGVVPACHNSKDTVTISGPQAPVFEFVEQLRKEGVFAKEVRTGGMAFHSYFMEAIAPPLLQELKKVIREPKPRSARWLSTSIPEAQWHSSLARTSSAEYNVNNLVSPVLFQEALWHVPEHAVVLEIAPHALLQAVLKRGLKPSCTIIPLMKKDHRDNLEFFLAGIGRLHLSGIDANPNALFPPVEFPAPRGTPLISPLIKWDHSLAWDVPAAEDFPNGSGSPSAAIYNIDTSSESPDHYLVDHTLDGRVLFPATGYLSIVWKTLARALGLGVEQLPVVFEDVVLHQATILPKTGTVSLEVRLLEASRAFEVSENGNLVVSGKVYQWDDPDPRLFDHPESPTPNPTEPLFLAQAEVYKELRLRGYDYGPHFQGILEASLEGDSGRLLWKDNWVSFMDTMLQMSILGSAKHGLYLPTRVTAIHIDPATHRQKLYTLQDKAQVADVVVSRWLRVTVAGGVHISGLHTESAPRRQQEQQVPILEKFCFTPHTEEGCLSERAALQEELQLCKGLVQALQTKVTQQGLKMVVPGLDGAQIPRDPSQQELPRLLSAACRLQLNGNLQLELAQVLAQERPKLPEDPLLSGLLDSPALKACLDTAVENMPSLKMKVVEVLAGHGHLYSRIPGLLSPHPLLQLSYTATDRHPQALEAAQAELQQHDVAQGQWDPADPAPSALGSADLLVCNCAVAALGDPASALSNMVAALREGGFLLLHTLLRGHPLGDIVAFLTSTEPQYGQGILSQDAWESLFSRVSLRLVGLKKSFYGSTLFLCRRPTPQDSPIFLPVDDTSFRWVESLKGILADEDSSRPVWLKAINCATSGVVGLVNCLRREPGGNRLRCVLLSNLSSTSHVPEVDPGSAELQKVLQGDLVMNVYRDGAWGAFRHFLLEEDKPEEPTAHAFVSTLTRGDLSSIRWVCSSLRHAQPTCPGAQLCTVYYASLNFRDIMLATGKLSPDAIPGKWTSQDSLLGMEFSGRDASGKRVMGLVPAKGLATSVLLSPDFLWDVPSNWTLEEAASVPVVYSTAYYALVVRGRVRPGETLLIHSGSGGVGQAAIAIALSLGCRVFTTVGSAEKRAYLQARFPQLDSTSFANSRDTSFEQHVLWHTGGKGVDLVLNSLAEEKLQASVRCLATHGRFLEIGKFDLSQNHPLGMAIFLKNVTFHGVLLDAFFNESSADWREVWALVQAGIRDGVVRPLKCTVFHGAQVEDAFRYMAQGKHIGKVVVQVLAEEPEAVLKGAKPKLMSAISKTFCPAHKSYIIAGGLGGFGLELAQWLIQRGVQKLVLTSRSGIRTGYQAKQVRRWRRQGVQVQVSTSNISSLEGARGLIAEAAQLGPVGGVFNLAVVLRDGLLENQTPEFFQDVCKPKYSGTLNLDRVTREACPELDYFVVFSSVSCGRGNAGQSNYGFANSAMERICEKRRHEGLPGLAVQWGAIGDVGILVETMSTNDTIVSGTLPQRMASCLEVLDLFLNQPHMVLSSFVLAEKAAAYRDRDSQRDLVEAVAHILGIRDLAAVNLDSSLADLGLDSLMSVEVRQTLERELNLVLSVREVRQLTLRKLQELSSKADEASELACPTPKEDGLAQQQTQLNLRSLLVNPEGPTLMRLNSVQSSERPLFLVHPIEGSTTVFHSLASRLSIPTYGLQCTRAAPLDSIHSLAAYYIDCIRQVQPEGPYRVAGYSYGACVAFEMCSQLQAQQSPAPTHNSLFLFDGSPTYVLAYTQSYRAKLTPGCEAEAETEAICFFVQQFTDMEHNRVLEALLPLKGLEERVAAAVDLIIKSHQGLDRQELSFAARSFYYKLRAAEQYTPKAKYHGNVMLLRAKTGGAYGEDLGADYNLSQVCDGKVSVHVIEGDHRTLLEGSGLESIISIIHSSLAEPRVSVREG
Assay: Biochemical activity testing of human fatty acid synthase FASN (NADPH fluorescence intensity enzyme assay)
Conditions: human recombinant full-length fatty acid synthase
Method: Biochemical activity testing of human fatty acid synthase FASN Fatty acid synthase FASN is a multifunctional enzyme with seven catalytic activities thereby synthesising long chain fatty acids especially palmitoyl-CoA in the presence of co-factor NADPH starting from the substrates acetyl-CoA and malonyl-CoA. […] After this the fluorescence intensity was measured again in the Envision using the same parameters as described above (second time point measurement). […]
pIC50: −log10 of the molar value.

| molecularString | pIC50 |
| --- | --- |
| CO[C@H](C)C(=O)N[C@H]1CC[C@@H](N(C)C(=O)c2ccc(-c3nc4ccccc4o3)cc2)C1 | 5.52 to 6.52 |
| CCC(=O)N[C@H]1CC[C@@H](N(C)C(=O)c2ccc(-c3ccc(OC)cc3OC)cc2)C1 | > 6.52 |
| CCC(=O)N[C@H]1CC[C@@H](N(C)C(=O)c2ccc(-c3ccc4[nH]ccc4c3F)nn2)C1 | > 6.52 |
| CN(C(=O)c1cnc(-c2nc3ccc(Cl)cc3o2)cn1)[C@@H]1CC[C@H](NC(=O)[C@@H]2CCCO2)C1 | > 6.52 |

Q: Please give the measured pIC50 for this molecule: CCC(=O)N[C@H]1CC[C@@H](N(C)C(=O)c2ccc(-c3ccc4c(ccn4C)c3)cn2)C1
A: > 6.52

Q: Please give the measured pIC50 for this molecule: CCC(=O)N[C@H]1CC[C@@H](N(C)C(=O)c2cnc(-c3cc(F)c4[nH]ccc4c3)c(F)c2)C1
A: 5.52 to 6.52

Q: Please give the measured pIC50 for this molecule: CCC(=O)N[C@H]1CC[C@@H](N(C)C(=O)c2ccc(-c3ccc4cc[nH]c4c3)cc2)C1
A: > 6.52

Q: Please give the measured pIC50 for this molecule: CCC(=O)N[C@H]1CC[C@@H](N(C)C(=O)c2cnc(-c3ccc4[nH]ccc4c3)nc2)C1
A: > 6.52

Q: Please give the measured pIC50 for this molecule: CCC(=O)N[C@H]1CC[C@@H](N(C)C(=O)c2ccc(-c3cc(F)c4[nH]ccc4c3)nn2)C1
A: 5.52 to 6.52

Q: Please give the measured pIC50 for this molecule: CCC(=O)N[C@H]1CC[C@@H](N(C)C(=O)c2ccc(-c3ccc4ncsc4c3)cc2)C1
A: > 6.52

Q: Please give the measured pIC50 for this molecule: CCC(=O)N[C@H]1CC[C@@H](N(C)C(=O)c2ccc(-c3ccc(Cl)cc3)cc2)C1
A: > 6.52

Q: Please give the measured pIC50 for this molecule: CCC(=O)N[C@H]1CC[C@@H](N(C)C(=O)c2ccc(-c3ccc4c(ccn4C)c3)c(C)c2)C1
A: > 6.52

Q: Please give the measured pIC50 for this molecule: CCC(=O)N[C@H]1CC[C@@H](N(C)C(=O)c2ccc(-c3cc(F)c4c(c3)CCN4)nc2)C1
A: 5.52 to 6.52

Q: Please give the measured pIC50 for this molecule: CCC(=O)N[C@H]1CC[C@@H](N(C)C(=O)c2ccc(-c3ccc4[nH]ccc4c3)c(C)c2)C1
A: > 6.52

Q: Please give the measured pIC50 for this molecule: CCC(=O)N[C@H]1CC[C@@H](N(C)C(=O)c2ccc(-c3ccc4[nH]nc(C)c4c3)cn2)C1
A: > 6.52
